test system: THP-1 macrophages; assay: Cytotoxicity against THP-1 macrophages (CellTiter-Blue); format: cell-based, human
No end group written: not given here.
readout_kind: THP-1 macrophage CC50

AWKETIRKYLKNEIKKKGRKAVIAW [Syn-safencin-22]	< 20 µM

Then there is this sequence:
Please fill in: THP-1 macrophage CC50 reported for AGKETIRQFLKKKIQEWKKRATIAW [Syn-larvacin-44] = < 20 µM

----------
Tested on: THP-1 macrophages
Assay: Cytotoxicity against THP-1 macrophages (CellTiter-Blue)
Assay type: cell-based, human
Method: THP-1 (human acute monocytic leukemia-derived) host macrophages were cultured in RPMI 1640 supplemented with 10% FCS and a penicillin-streptomycin antibiotic solution (10,000 U/mL penicillin, 10,000 μg/mL streptomycin) at 37°C with 5% CO2. […] After the 48-h incubation period, CellTiter-Blue reagent was added to cells for 4 h at 37°C, and fluorescence was measured (555-nm excitation/580-nm emission) using a FlexStation 3 benchtop multimode reader (Molecular Devices). […]
No end group written: not given here.
readout_kind: THP-1 macrophage CC50

Sample records with THP-1 macrophage CC50:
AGKETIRQYLKNKIKKKWRKAVIAW [Syn-safencin-51]	< 20 µM
AWKETIFQRLKKKIQEKGKRATIAW [Syn-larvacin 35]	> 20 µM
WGKETIRQKLKNEIKKKGRKAVIAW [Syn-safencin-15]	below 20 μM
AWTEKIFNRLKKTINEGKKIAKRAW [Syn-larvacin-40]	< 20 µM
AGRQALWLYLKEELRKFGKKARIAW [Syn-xiamencin-45]	< 20 µM

Please fill in: THP-1 macrophage CC50 reported for AGKETIFQRLKKKIQEKWKRATIAW [Syn-larvacin-43] = < 20 µM

Please fill in: THP-1 macrophage CC50 reported for WGKKTIRQYLKNEIKKKGRKAVIAW [Syn-safencin-10] = below 20 μM

Please fill in: THP-1 macrophage CC50 reported for AWKKTIRQYLKNKIKKKWRKAVIAW [Syn-safencin-92] = < 20 µM

Please fill in: THP-1 macrophage CC50 reported for WGKETIRQFLKKKIQEKGKIATRAW [Syn-larvacin 14] = > 20 µM

Please fill in: THP-1 macrophage CC50 reported for AWAQRLTKELLEYLRKFGKIARKAW [Syn-xiamencin-31] = < 20 µM

Please fill in: THP-1 macrophage CC50 reported for AGKEKIRQYWKNEIKKKGRKAVIAW [Syn-safencin-37] = < 20 µM

----------
test system: THP-1 macrophages; assay: Cytotoxicity against THP-1 macrophages (CellTiter-Blue); assay type: cell-based, human
No end group written: not given here.
readout_kind: THP-1 macrophage CC50

Sample records with THP-1 macrophage CC50:
AGKKTIRQYLKNKIKKKWRKAVIAW [Syn-safencin-52]	< 20 µM
AGRQALTLYLKEELRKFGKKWRIAW [Syn-xiamencin-37]	< 20 µM
AGKETIFWRLKKKIWEKGKRATIAW [Syn-larvacin-51]	< 20 µM
AGKEKIRQYLKNEIKKKGRKWVIAW [Syn-safencin-61]	< 20 µM
AGKETIRQFLKKTIQEKGKRAKIWW [Syn-larvacin 69]	> 20 µM

Please fill in: THP-1 macrophage CC50 reported for AWKETIRQYLKNKIKKKWRKAVIAW [Syn-safencin-91] = < 20 µM

Please fill in: THP-1 macrophage CC50 reported for AGRQALTLELKEYLRKRWKKAFIAW [Syn-xiamencin-19] = < 20 µM

Please fill in: THP-1 macrophage CC50 reported for AGRQALTKYLLEELRKRWKKAFIAW [Syn-xiamencin-20] = < 20 µM

----------
Parameter THP-1 macrophage CC50: see the listing below.
test system: THP-1 macrophages; assay: Cytotoxicity against THP-1 macrophages (CellTiter-Blue); type: cell-based, human
No end group written: not given here.

AWKKTIRQYLKNEIKKKGRKAVIAW [Syn-safencin-18]	< 20 µM
AGKEKIRKKLKNEIKKKGRKWVIAW [Syn-safencin-64]	< 20 µM
AGAQRLWKELLEYLRKFGKIARKAW [Syn-xiamencin-47]	< 20 µM

Field THP-1 macrophage CC50 (system: THP-1 macrophages) for entry AGANRLTKELLEYLRKFGKIWRKAW [Syn-xiamencin-40] = < 20 µM

Field THP-1 macrophage CC50 (system: THP-1 macrophages) for entry AGRQWLTLYLKEELRKRGKIAFKAW [Syn-xiamencin-54] = < 20 µM

----------
test system: Leishmania donovani axenic amastigotes; conditions: read-out: Axenic amastigotes Mean IC50 ± SD
No end group written: not given here.
readout_kind: pIC50
pIC50 is defined as minus the log10 of a concentration measured in mol/L.

AGRQALWLYLKEELRKRGKIAFKAW [Syn-xiamencin-46]	4.93
AGRQALTLYLKEELRKFGKKWRIAW [Syn-xiamencin-37]	5.43

Please fill in: pIC50 reported for AGAQRLTKELLEYLRKFGKIWRKAW [Syn-xiamencin-39] = 5.17

Please fill in: pIC50 reported for AGAQRLWKELLEYLRKFGKIARKAW [Syn-xiamencin-47] = 5.57

Please fill in: pIC50 reported for AGWQRLTLYLKEELRKRGKKAFIAW [Syn-xiamencin-50] = 5.43

Please fill in: pIC50 reported for AGANRLTKELLEYLRKFGKIWRKAW [Syn-xiamencin-40] = 5.88

Please fill in: pIC50 reported for AGRQALWLYLKEELRKFGKKARIAW [Syn-xiamencin-45] = 5.21

Please fill in: pIC50 reported for AGTEKIFQRLKKWIQEGKKIAKRAW [Syn-larvacin-31] = 5.42

Please fill in: pIC50 reported for AGRQWLTLYLKEELRKRGKKAFIAW [Syn-xiamencin-49] = 5.04

Please fill in: pIC50 reported for AGANRLWKELLEYLRKFGKIARKAW [Syn-xiamencin-48] = 5.66

Please fill in: pIC50 reported for AGRQALWKYLLEELRKRGKKAFIAW [Syn-xiamencin-44] = 5.93

Please fill in: pIC50 reported for AGRQALTKYLLEELRKRGKKWFIAW [Syn-xiamencin-36] = 5.82

----------
test system: THP-1 macrophages; test: Cytotoxicity against THP-1 macrophages (CellTiter-Blue); assay type: cell-based, human; conditions: 48 h
No end group written: not given here.
Parameter THP-1 macrophage CC50: see the listing below.

Please fill in: THP-1 macrophage CC50 reported for AGKEKIRQYLKNEIKKKGRKAVWAW [Syn-safencin 77] = >20 µM

Please fill in: THP-1 macrophage CC50 reported for AWKETIFQRLKKKIQEKGKRATIAW [Syn-larvacin 35] = >20 µM

Please fill in: THP-1 macrophage CC50 reported for AGKETIRQFLKKTIQEKGKRAKIWW [Syn-larvacin 69] = >20 µM

Please fill in: THP-1 macrophage CC50 reported for WGKETIRQFLKKKIQEKGKIATRAW [Syn-larvacin 14] = >20 µM

Please fill in: THP-1 macrophage CC50 reported for AGKKTIRQYLKNEIKKKGRKAVIAW [Syn-safencin 2] = >20 µM

Please fill in: THP-1 macrophage CC50 reported for AGKETIRQYLKNEIKKKGRKAVWAW [Syn-safencin 73] = >20 µM

----------
test system: THP-1 macrophages; test: Cytotoxicity against THP-1 macrophages (CellTiter-Blue); assay type: cell-based, human
No end group written: not given here.
Parameter THP-1 macrophage CC50: see the listing below.

AGKETIRQFLKKKIQEKKKRATIAW [Syn-larvacin-81]	< 20 µM
AGKEKIRKKLKNEWKKKGRKAVIAW [Syn-safencin-48]	< 20 µM

Field THP-1 macrophage CC50 (system: THP-1 macrophages) for entry AGKKTIRQYLKNKWKKKGRKAVIAW [Syn-safencin-44] = < 20 µM

----------
test system: THP-1 macrophages; assay: Cytotoxicity against THP-1 macrophages (CellTiter-Blue); assay type: cell-based, human
No end group written: not given here.
readout_kind: THP-1 macrophage CC50

Sample records with THP-1 macrophage CC50:
AGKETIRQYWKNKIKKKGRKAVIAW [Syn-safencin-35]	< 20 µM
AGKETIRQKLKNEIKKKGRKAVIAW [Syn-safencin 7]	> 20 µM
AGRQWLTLYLKEELRKRGKKAFIAW [Syn-xiamencin-49]	< 20 µM
AWANRLTKELLEYLRKFGKIARKAW [Syn-xiamencin-32]	< 20 µM
AGKETIRQFLKKRIQEKGKRAKIAW [Syn-larvacin-93]	< 20 µM
AGKEKIRQFLKKKIQEKGKRATIAW [Syn-larvacin-73]	< 20 µM

Please fill in: THP-1 macrophage CC50 reported for AGSERIAKELKKYIKKGKKWIRAAW [Syn-enterocin-64] = < 20 µM

Please fill in: THP-1 macrophage CC50 reported for AGRQALWKYLLEELRKRGKKAFIAW [Syn-xiamencin-44] = < 20 µM

Please fill in: THP-1 macrophage CC50 reported for AGKETIRKYLKNEIKKKGRKAVWAW [Syn-safencin 78] = > 20 µM

Please fill in: THP-1 macrophage CC50 reported for AGKETIRQFLKKKIQEKGKIATRWW [Syn-larvacin-70] = < 20 µM
